Entries and their measured % Inhibition follow.
test system: human Factor 7 mRNA; experiment: Antisense inhibition of human Factor 7 mRNA in HepB3 cells, 50 nM antisense oligonucleotide, lipofectin; type: cell-based; conditions: Table 6, 50 nM, lipofectin, approximately 24 hours
Strand notation (5' to 3'): a small letter for the sugar, then the base; units joined by * are phosphorothioate-linked, units joined directly phosphodiester-linked; [ ] holds rarer units or linkages, { } end groups; capitals alone tell only the bases. e = 2'-O-(2-methoxyethyl) (MOE); [5mC] = 5-methylcytosine; d = 2'-deoxy (DNA)
Give the number; % is assumed, so skip it.

422122 (antisense eA*eG*e[5mC]*eG*e[5mC]*dG*dG*dA*dA*dG*dA*dA*dG*dG*dG*eA*e[5mC]*eG*eG*eA) [compound 422122]    24
422117 (antisense eG*eG*eA*eA*eG*dA*dA*dG*dG*dG*dA*d[5mC]*dG*dG*dA*eA*eG*eG*eT*eG) [compound 422117]    1

Next item in the queue.
Task: Tell me the measured % Inhibition of 422266 (antisense e[5mC]*eG*d[5mC]*dG*dG*dA*dA*dG*dA*dA*dG*dG*dG*dA*d[5mC]*eG*eG*eA*eA*eG) [compound 422266] , please.
Result: 13

====

tested on: human Factor 7 mRNA; experiment: Antisense inhibition of human Factor 7 mRNA in HepB3 cells, 50 nM antisense oligonucleotide, lipofectin; format: cell-based; conditions: Table 13 (microwalk), 50 nM, lipofectin, approximately 24 hours
Strand notation (5' to 3'): a small letter for the sugar, then the base; units joined by * are phosphorothioate-linked, units joined directly phosphodiester-linked; [ ] holds rarer units or linkages, { } end groups; capitals alone tell only the bases. e = 2'-O-(2-methoxyethyl) (MOE); [5mC] = 5-methylcytosine; d = 2'-deoxy (DNA)
result-type: % Inhibition
A complete answer gives the number and then names the unit.

Worked cases, answers included:
416482 (antisense e[5mC]*eA*eT*eG*eG*dT*dG*dA*dT*dG*d[5mC]*dT*dT*d[5mC]*dT*eG*eA*eA*eT*eT) [compound 416482]    64%
422227 (antisense eG*e[5mC]*dA*dT*dG*dG*dT*dG*dA*dT*dG*d[5mC]*dT*dT*d[5mC]*eT*eG*eA*eA*eT) [compound 422227]    67%

Next item in the queue.
Task: Give % Inhibition (human Factor 7 mRNA) of the following substance: 422149 (antisense e[5mC]*eA*eT*dG*dG*dT*dG*dA*dT*dG*d[5mC]*dT*dT*d[5mC]*dT*dG*dA*eA*eT*eT) [compound 422149]
Result: 61%

====

tested on: human Factor 7 mRNA; assay: Antisense inhibition of human Factor 7 mRNA in HepB3 cells, 50 nM antisense oligonucleotide, lipofectin; type: cell-based; settings: oligonucleotides targeted to nucleobases 15098 to 15122 of SEQ ID NO: 1 (Table 12)
Strand notation (5' to 3'): a small letter for the sugar, then the base; units joined by * are phosphorothioate-linked, units joined directly phosphodiester-linked; [ ] holds rarer units or linkages, { } end groups; capitals alone tell only the bases. e = 2'-O-(2-methoxyethyl) (MOE); [5mC] = 5-methylcytosine; d = 2'-deoxy (DNA)
Entries and their measured % Inhibition (human Factor 7 mRNA levels) follow.
Give the number; % is assumed, so skip it.

Task: Tell me the measured % Inhibition (human Factor 7 mRNA levels) of 422134 (antisense eG*e[5mC]*eA*e[5mC]*eA*d[5mC]*dA*dT*dG*dG*dA*dG*dT*d[5mC]*dA*eG*e[5mC]*eA*eT*e[5mC]) [compound 422134] , please.
Result: 67

Task: Entry to check: 422285 (antisense eG*e[5mC]*dA*d[5mC]*dA*d[5mC]*dA*dT*dG*dG*dA*dG*dT*d[5mC]*dA*eG*e[5mC]*eA*eT*e[5mC]) [compound 422285]
Result: 39

Task: Entry to check: 416479 (antisense eG*eA*e[5mC]*eA*eG*d[5mC]*dA*d[5mC]*dA*d[5mC]*dA*dT*dG*dG*dA*eG*eT*e[5mC]*eA*eG) [compound 416479]
Result: 47

Task: Entry to check: 422135 (antisense eA*eG*e[5mC]*eA*e[5mC]*dA*d[5mC]*dA*dT*dG*dG*dA*dG*dT*d[5mC]*eA*eG*e[5mC]*eA*eT) [compound 422135]
Result: 53

Task: Entry to check: 422136 (antisense e[5mC]*eA*eG*e[5mC]*eA*d[5mC]*dA*d[5mC]*dA*dT*dG*dG*dA*dG*dT*e[5mC]*eA*eG*e[5mC]*eA) [compound 422136]
Result: 57
